Condition Details: 295.15 K; 100 kPa; Liquid; Vibrating tube method
Measure: mass density (kg/m3)
// return numeric value only (unit: kg/m3, not printed)

Solved cases (4 shown):
- Compound: "CCCCCCn1cc[n+](C)c1C.O=S(=O)([N-]S(=O)(=O)C(F)(F)F)C(F)(F)F"
  mass density / kg/m3: 1362.1
- Compound: "CCn1cc[n+](C)c1.O=S(=O)([N-]S(=O)(=O)C(F)(F)F)C(F)(F)F"
  mass density / kg/m3: 1521.9
- Compound: "CCCCCCCC[P+](CC)(CC)CC.O=[N+]([O-])c1cn[n-]c1 [triethyloctylphosphonium 4-nitropyrazolide]"
  mass density / kg/m3: 1033.4
- Compound: "CCCCCC[n+]1ccn(C)c1.O=S(=O)([N-]S(=O)(=O)C(F)(F)F)C(F)(F)F"
  mass density / kg/m3: 1374.6

Query block: Item under review: CCCC[n+]1ccn(C)c1.O=S(=O)([N-]S(=O)(=O)C(F)(F)F)C(F)(F)F . Reported mass density?
Result block: 1439.6
